- target: Bcl-xL, Q07817
- Sequence (Q07817 1-209): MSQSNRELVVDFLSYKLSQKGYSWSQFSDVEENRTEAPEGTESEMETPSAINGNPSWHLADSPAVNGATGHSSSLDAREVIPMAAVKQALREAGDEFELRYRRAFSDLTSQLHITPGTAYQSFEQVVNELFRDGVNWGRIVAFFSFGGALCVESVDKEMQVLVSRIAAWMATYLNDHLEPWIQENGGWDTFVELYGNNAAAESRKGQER
- assayInfo: peptide SPOT array, c-Myc-tagged receptor at 1 uM or 100 nM, anti-c-Myc-Cy3
Class field: derived from SPOT signal as a fraction of Bim BH3's signal on the same receptor and array; ranges range A (below 0.02), range B (0.02 to below 0.06), range C (0.06 or more)

A selection of reference data follows.
| binder | group |
| --- | --- |
| AGYELLIQKFLSLYLDQIDMHRKFVV [ISOC1] | range C |
| CLSCDLCGCRLGEVLRRLYYKLGRKL [LMO2] | range C |
| NRKGEKNGKGLRHFSMKVCEKVQRKG [TFDP1] | range C |

Note: place this binder into its band. Item: QQMHHNAATAMAQRLDMLRGLSPRES [NCOR2]
range C

// bin(item) where item = SGEFREIGTVIDQIAETLWEQVFSKL [ATL2]
range B

Categorize the following entry: HPRRESQVRQLAWILDGVWVSIRLDS [MAPK8IP3]
range B

For this binder, which bin applies? CHGLRELALNYHLLLDELLLALSSEK [FBXL3]
range C

Given PAKKMTLSEIYRWILDNFPYYKNAGI [FOXJ2] , name the class its SPOT signal as a fraction of Bim BH3's signal on the same receptor and array places it in.
range C

Would you mind sorting RCELQICGLADADAGEYLCVCGQERT [OBSCN] into the appropriate category?
range A

Lab note: which band did LSPGRSVTAGIIIVGDEILKGHTQDT [FLAD1] land in?
range A

Classify this binder: QCPIFRLGDIDRETGDNFSDVAIQGG [P2RX7]
range B

Given YEQAKNISQDLEKQAARVHEEAKRAG [LAMC1] , name the class its SPOT signal as a fraction of Bim BH3's signal on the same receptor and array places it in.
range B
